Where do these numbers come from? They come from ChEMBL document CHEMBL4304836.

test system: HepG2; experiment: Cytotoxicity against human HepG2 cells incubated for 6 hrs by MTT assay; format: functional, cell-based; settings: HepG2, 6 h
Can you tell me IC50 for the items I'm about to list?

Examples with their reported IC50 follow.
* CS(=O)(=NC(F)(F)F)c1ccccc1 (configuration not stated) | > 200 µg/mL
* CS(=O)(=NSC(F)(F)F)c1ccccc1 (configuration not stated) | 15 µg/mL
* O=S(=NSC(F)(F)F)(c1ccccc1)c1ccccc1 | 90 µg/mL
* Cc1ccc(S(=O)(=NSC(F)(F)F)N2CCCCC2)cc1 (configuration not stated) | 65 µg/mL
* O=S(=NSC(F)(F)F)(c1ccccc1)N1CCCC1 (configuration not stated) | 15 µg/mL
* O=S(=NC(F)(F)F)(c1ccccc1)c1ccccc1 | 200 µg/mL

Lab note: next compound to report on.
Q: Value wanted: IC50 (HepG2) of entry CS(=N)(=O)c1ccccc1 (configuration not stated)
Result: > 100 µg/mL
